These measurements were taken from patent US20220202739A1.

# Test system: TRPV1
# Protocol Text: Gene expression custom microarray, human skin fibroblasts (Example 1): TRPV1
# Type: cell-based
# Protocol Conditions: 10 uM, 24 hr
As shown below, each of these compounds has a reported TRPV1↑ gene expression, fold increase or decrease vs untreated cells value.
Observation Type: TRPV1↑ gene expression, fold increase or decrease vs untreated cells (fold)

Compound | Experimental Result
CCCCCCCC/C=C\CCCCCCCC(=O)NCCO [N-Oleylethanolamide] | −1.6
CCCCCCCCCCCCCCCC(=O)NCCO [N-palmitoylethanolamide] | −3.2
C=C1CC/C=C(\C)CC[C@@H]2[C@@H]1CC2(C)C | 2
C[C@@H]1C(=O)O[C@H]2[C@H](O)[C@@]34[C@H]5C[C@@H](C(C)(C)C)[C@]36[C@@H](OC(=O)[C@@H]6O)O[C@@]4(C(=O)O5)[C@@]12O [Ginkolide, Ginkolide B] | −2.6

====

# Tested on: CNR1
# Protocol Text: Gene expression custom microarray, human skin fibroblasts (Example 1): CNR1
# Format: cell-based
# Protocol Conditions: human skin fibroblasts, 10 uM, 24 hr
Observation Type: CNR1↑ gene expression, fold increase or decrease vs untreated cells

Compound | Experimental Result
CCCCCCCC/C=C\CCCCCCCC(=O)NCCO [N-Oleylethanolamide] | −1.9 fold
CCCCCCCCCCCCCCCC(=O)NCCO [N-palmitoylethanolamide] | 5.9 fold
C=C1CC/C=C(\C)CC[C@@H]2[C@@H]1CC2(C)C [B-Caryphyllene, B-Caryophyllene] | 0 fold
C[C@@H]1C(=O)O[C@H]2[C@H](O)[C@@]34[C@H]5C[C@@H](C(C)(C)C)[C@]36[C@@H](OC(=O)[C@@H]6O)O[C@@]4(C(=O)O5)[C@@]12O [Ginkolide, Ginkolide B] | 1.1 fold

====

# Test system: FAAH
# Protocol Text: Gene expression custom microarray, human skin fibroblasts (Example 1): FAAH
# Type: cell-based
# Protocol Conditions: human skin fibroblasts, 10 uM, 24 hr
As shown below, each of these molecules has a reported FAAH↓ gene expression, fold increase or decrease vs untreated cells value.
Observation Type: FAAH↓ gene expression, fold increase or decrease vs untreated cells (fold)

Molecule | Units | Experimental Result
C=C1CC/C=C(\C)CC[C@@H]2[C@@H]1CC2(C)C [B-Caryphyllene, B-Caryophyllene] | fold | −1.6
CCCCCCCCCCCCCCCC(=O)NCCO [N-palmitoylethanolamide] | fold | −1.1
C[C@@H]1C(=O)O[C@H]2[C@H](O)[C@@]34[C@H]5C[C@@H](C(C)(C)C)[C@]36[C@@H](OC(=O)[C@@H]6O)O[C@@]4(C(=O)O5)[C@@]12O [Ginkolide, Ginkolide B] | fold | −1.1
CCCCCCCC/C=C\CCCCCCCC(=O)NCCO [N-Oleylethanolamide] | fold | −1.1

====

# System: PTGS1
# Protocol Text: Gene expression custom microarray, human skin fibroblasts (Example 1): PTGS1
# Format: cell-based
# Protocol Conditions: human skin fibroblasts, 10 uM, 24 hr
Observation Type: PTGS1↓ gene expression, fold increase or decrease vs untreated cells (fold)

Compound | System Name | Units | Experimental Result
CCCCCCCCCCCCCCCC(=O)NCCO [N-palmitoylethanolamide] | PTGS1 | fold | 1.1
CCCCCCCC/C=C\CCCCCCCC(=O)NCCO [N-Oleylethanolamide] | PTGS1 | fold | 1.5
C[C@@H]1C(=O)O[C@H]2[C@H](O)[C@@]34[C@H]5C[C@@H](C(C)(C)C)[C@]36[C@@H](OC(=O)[C@@H]6O)O[C@@]4(C(=O)O5)[C@@]12O [Ginkolide, Ginkolide B] | PTGS1 | fold | −1.3
C=C1CC/C=C(\C)CC[C@@H]2[C@@H]1CC2(C)C | PTGS1 | fold | −1.5
